Taken from paper PMC13181761.

target: human C3b (Homo sapiens); construct: purchased Complement Technology, Tyler, TX, USA; experiment: SPR kinetic binding to immobilized human C3b; conditions: K D ratio vs Cp01
Where a SMILES comes first, the peptide text is derived from it. Bridges are numbered along the chain shown (N, C = ends). [ ]: non-standard residue; d: D form. Asu = N[C@@H](CCCCCC(=O)O)C(=O)O
assay.metric: fold affinity drop / weaker affinity compared with Cp01 (fold)
The figure you give is taken to be in fold; do not add the unit.

CC[C@H](C)[C@H](NC(C)=O)C(=O)N[C@H]1CSSC[C@@H](C(=O)N[C@H](C(N)=O)[C@@H](C)O)NC(=O)[C@H](CCCNC(=N)N)NC(=O)[C@H](Cc2c[nH]cn2)NC(=O)[C@H](C)NC(=O)CNC(=O)[C@H](Cc2c[nH]c3ccccc23)NC(=O)[C@H](CCCCCC(=O)O)NC(=O)[C@H](CCC(N)=O)NC(=O)[C@H](Cc2c[nH]c3ccccc23)NC(=O)[C@H](C(C)C)NC1=O [Cp01-Asp6Asu] (Ac-ICVWQ[Asu]WGAHRCT-NH2; disulfide 2-12) | 10

# ---- query compound ----
Input line: # get_value(readout='fold affinity drop / weaker affinity compared with Cp01', item= CC[C@H](C)[C@H](NC(C)=O)C(=O)N[C@H]1CSSC[C@@H](C(=O)N[C@H](C(N)=O)[C@@H](C)O)NC(=O)[C@H](CCCNC(=N)N)NC(=O)[C@H](Cc2c[nH]cn2)NC(=O)[C@H](C)NC(=O)CNC(=O)[C@H](Cc2c[nH]c3ccccc23)NC(=O)[C@H](CCC(=O)O)NC(=O)[C@H](CCC(N)=O)NC(=O)[C@H](Cc2c[nH]c3ccccc23)NC(=O)[C@H](C(C)C)NC1=O [Cp01-Asp6Glu] (Ac-ICVWQEWGAHRCT-NH2; disulfide 2-12) )
Output line: 2

----------
target: human C3b (Homo sapiens, UniProt P01024); construct: purchased Complement Technology, Tyler, TX, USA; experiment: SPR kinetic binding to immobilized human C3b; conditions: SPR, 1:1 Langmuir fit, average of 3 independent experiments, SD in brackets
Sequence (P01024 23-667 limits assumed): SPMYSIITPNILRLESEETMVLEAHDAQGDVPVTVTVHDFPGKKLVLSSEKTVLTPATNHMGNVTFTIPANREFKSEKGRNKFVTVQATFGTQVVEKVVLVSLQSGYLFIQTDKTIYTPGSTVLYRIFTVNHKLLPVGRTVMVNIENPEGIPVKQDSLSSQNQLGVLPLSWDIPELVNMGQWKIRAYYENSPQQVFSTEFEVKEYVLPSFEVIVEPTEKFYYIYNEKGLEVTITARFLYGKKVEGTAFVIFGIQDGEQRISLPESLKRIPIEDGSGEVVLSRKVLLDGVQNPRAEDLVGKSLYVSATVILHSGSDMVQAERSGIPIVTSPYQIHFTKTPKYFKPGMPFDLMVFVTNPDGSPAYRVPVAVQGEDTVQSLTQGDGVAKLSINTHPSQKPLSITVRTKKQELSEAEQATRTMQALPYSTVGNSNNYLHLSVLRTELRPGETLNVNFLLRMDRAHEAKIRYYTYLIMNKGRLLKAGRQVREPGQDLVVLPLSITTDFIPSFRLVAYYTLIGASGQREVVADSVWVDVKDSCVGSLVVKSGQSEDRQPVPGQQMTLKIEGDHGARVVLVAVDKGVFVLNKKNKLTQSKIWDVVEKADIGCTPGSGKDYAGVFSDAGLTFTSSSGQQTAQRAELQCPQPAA
Sequence (P01024 749-1663 partner limits assumed): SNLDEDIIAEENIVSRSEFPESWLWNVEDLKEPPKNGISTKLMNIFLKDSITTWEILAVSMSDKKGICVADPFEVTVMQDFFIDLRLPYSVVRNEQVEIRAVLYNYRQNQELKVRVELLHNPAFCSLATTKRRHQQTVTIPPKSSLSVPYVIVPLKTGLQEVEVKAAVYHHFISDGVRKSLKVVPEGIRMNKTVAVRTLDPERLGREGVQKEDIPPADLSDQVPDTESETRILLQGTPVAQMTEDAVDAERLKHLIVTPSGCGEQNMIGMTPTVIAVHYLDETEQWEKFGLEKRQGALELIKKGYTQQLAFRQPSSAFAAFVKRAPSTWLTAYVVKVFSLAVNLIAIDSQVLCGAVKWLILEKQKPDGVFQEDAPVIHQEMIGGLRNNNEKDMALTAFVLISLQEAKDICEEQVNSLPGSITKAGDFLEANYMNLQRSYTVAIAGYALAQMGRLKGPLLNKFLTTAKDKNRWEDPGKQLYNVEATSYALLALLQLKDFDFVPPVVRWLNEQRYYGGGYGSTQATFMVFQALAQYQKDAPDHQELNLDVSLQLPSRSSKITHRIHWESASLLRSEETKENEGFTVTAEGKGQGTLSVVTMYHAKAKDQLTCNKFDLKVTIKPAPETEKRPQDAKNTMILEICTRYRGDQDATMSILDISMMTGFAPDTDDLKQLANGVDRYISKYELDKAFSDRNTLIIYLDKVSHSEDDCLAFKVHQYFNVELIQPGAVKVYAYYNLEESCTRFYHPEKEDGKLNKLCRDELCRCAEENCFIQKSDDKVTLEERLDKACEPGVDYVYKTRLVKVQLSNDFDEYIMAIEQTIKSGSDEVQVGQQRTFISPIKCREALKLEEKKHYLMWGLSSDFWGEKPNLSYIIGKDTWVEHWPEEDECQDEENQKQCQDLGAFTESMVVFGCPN
Where a SMILES comes first, the peptide text is derived from it. Bridges are numbered along the chain shown (N, C = ends).
assay.metric: k a, affinity hC3b

Input line: # k a, affinity hC3b lookup, item CC[C@H](C)[C@H](NC(C)=O)C(=O)N[C@H]1CSSC[C@@H](C(=O)N[C@H](C(N)=O)[C@@H](C)O)NC(=O)[C@H](CO)NC(=O)[C@H](Cc2c[nH]cn2)NC(=O)[C@H](C)NC(=O)CNC(=O)[C@H](Cc2c[nH]c3ccccc23)NC(=O)[C@H](CC(=O)O)NC(=O)[C@H](CCC(N)=O)NC(=O)[C@H](Cc2c[nH]c3ccccc23)NC(=O)[C@H](C(C)C)NC1=O [Cp01-Arg11Ser] (Ac-ICVWQDWGAHSCT-NH2; disulfide 2-12)
Output line: 3.3(1.2) 10^5 M^–1 s^–1

Input line: What measured k a, affinity hC3b goes with CC[C@H](C)[C@H](NC(C)=O)C(=O)N[C@H]1CSSC[C@@H](C(=O)N[C@H](C(N)=O)[C@@H](C)O)NC(=O)[C@H](CCCNC(=N)N)NC(=O)[C@H](Cc2c[nH]cn2)NC(=O)[C@H](C)NC(=O)CNC(=O)[C@H](Cc2c[nH]c3ccccc23)NC(=O)[C@H](CO)NC(=O)[C@H](CCC(N)=O)NC(=O)[C@H](Cc2c[nH]c3ccccc23)NC(=O)[C@H](C(C)C)NC1=O [Cp01-Asp6Ser] (Ac-ICVWQSWGAHRCT-NH2; disulfide 2-12) ?
Output line: 3.1(0.9) 10^5 M^–1 s^–1

----------
Measured log10 of Kd, listed per entry for reference.
target: human C3b (Homo sapiens); construct: purchased Complement Technology, Tyler, TX, USA; assay: SPR kinetic binding to immobilized human C3b; conditions: SPR, 1:1 Langmuir fit, average of 3 independent experiments, SD in brackets; read-out: K D, affinity hC3b
Where a SMILES comes first, the peptide text is derived from it. Bridges are numbered along the chain shown (N, C = ends).
Note: values are log10 of Kd expressed in nM.

CC[C@H](C)[C@H](NC(C)=O)C(=O)N[C@H]1CSSC[C@@H](C(=O)N[C@H](C(N)=O)[C@@H](C)O)NC(=O)[C@H](CCCCN)NC(=O)[C@H](Cc2c[nH]cn2)NC(=O)[C@H](C)NC(=O)CNC(=O)[C@H](Cc2c[nH]c3ccccc23)NC(=O)[C@H](CC(=O)O)NC(=O)[C@H](CCC(N)=O)NC(=O)[C@H](Cc2c[nH]c3ccccc23)NC(=O)[C@H](C(C)C)NC1=O [Cp01-Arg11Lys] (Ac-ICVWQDWGAHKCT-NH2; disulfide 2-12) | 2.70
CC[C@H](C)[C@H](NC(C)=O)C(=O)N[C@H]1CSSC[C@@H](C(=O)N[C@H](C(N)=O)[C@@H](C)O)NC(=O)[C@H](CCCNC(=N)N)NC(=O)[C@H](Cc2c[nH]cn2)NC(=O)[C@H](C)NC(=O)CNC(=O)[C@H](Cc2c[nH]c3ccccc23)NC(=O)[C@H](CCC(=O)O)NC(=O)[C@H](CCC(N)=O)NC(=O)[C@H](Cc2c[nH]c3ccccc23)NC(=O)[C@H](C(C)C)NC1=O [Cp01-Asp6Glu] (Ac-ICVWQEWGAHRCT-NH2; disulfide 2-12) | 2.72
CC[C@H](C)[C@H](NC(=O)[C@H](N)Cc1ccc(O)cc1)C(=O)N[C@H]1CSSC[C@@H](C(=O)N(C)[C@H](C(N)=O)[C@@H](C)CC)NC(=O)[C@H](CCCNC(=N)N)NC(=O)[C@H](Cc2c[nH]cn2)NC(=O)[C@H](C)NC(=O)CN(C)C(=O)[C@H](Cc2c[nH]c3ccccc23)NC(=O)[C@H](CC(=O)O)NC(=O)[C@H](CCC(N)=O)NC(=O)[C@H](Cc2cn(C)c3ccccc23)NC(=O)[C@H](C(C)C)NC1=O [Cp40, reference compound] | -0.15
CC[C@H](C)[C@H](NC(C)=O)C(=O)N[C@H]1CSSC[C@@H](C(=O)N[C@H](C(N)=O)[C@@H](C)O)NC(=O)[C@H](CCCNC(=N)N)NC(=O)[C@H](Cc2c[nH]cn2)NC(=O)[C@H](C)NC(=O)CNC(=O)[C@H](Cc2c[nH]c3ccccc23)NC(=O)[C@H](CC(N)=O)NC(=O)[C@H](CCC(N)=O)NC(=O)[C@H](Cc2c[nH]c3ccccc23)NC(=O)[C@H](C(C)C)NC1=O [Cp01-Asp6Asn] (Ac-ICVWQNWGAHRCT-NH2; disulfide 2-12) | 2.34

Input line: What value of log10 of Kd has been recorded for this entry: CC[C@H](C)[C@H](NC(C)=O)C(=O)N[C@H]1CSSC[C@@H](C(=O)N[C@H](C(N)=O)[C@@H](C)O)NC(=O)[C@H](CO)NC(=O)[C@H](Cc2c[nH]cn2)NC(=O)[C@H](C)NC(=O)CNC(=O)[C@H](Cc2c[nH]c3ccccc23)NC(=O)[C@H](CC(=O)O)NC(=O)[C@H](CCC(N)=O)NC(=O)[C@H](Cc2c[nH]c3ccccc23)NC(=O)[C@H](C(C)C)NC1=O [Cp01-Arg11Ser] (Ac-ICVWQDWGAHSCT-NH2; disulfide 2-12)
Output line: 2.72

----------
Biological target: human C3b (Homo sapiens, UniProt P01024)
Construct: purchased Complement Technology, Tyler, TX, USA
Assay: SPR kinetic binding to immobilized human C3b
Conditions: SPR screening at 2 and 1 μM; series up to 16 μM; read-out: affinity hC3b (class symbol N.B./W.B.)
Protocol: Experiments were conducted at 25 °C in HBST buffer (10 mM HEPES, 150 mM NaCl, and 0.05% Tween-20, pH 7.4; XanTec bioanalytics). Human C3b (Complement Technology, Tyler, TX, USA) was immobilized via amine-reactive coupling. […] Data were fitted to a Langmuir 1:1 binding model to calculate association (k a) and dissociation (k d) rate constants, and the equilibration constant K D is calculated based on the equation: K D = k d/k a. […]
pKd: −log10 of the molar value. Where a SMILES comes first, the peptide text is derived from it. Bridges are numbered along the chain shown (N, C = ends). [ ]: non-standard residue; d: D form. Bta = N[C@@H](Cc1csc2ccccc12)C(=O)O
assay.metric: pKd

The cases that follow already have their pKd on record.
CC[C@H](C)[C@H](NC(C)=O)C(=O)N[C@H]1CSSC[C@@H](C(=O)N[C@H](C(N)=O)[C@@H](C)O)NC(=O)[C@H](CCCNC(=N)N)NC(=O)[C@H](Cc2c[nH]cn2)NC(=O)[C@H](C)NC(=O)CNC(=O)[C@H](Cc2csc3ccccc23)NC(=O)[C@H](CC(=O)O)NC(=O)[C@H](CCC(N)=O)NC(=O)[C@H](Cc2c[nH]c3ccccc23)NC(=O)[C@H](C(C)C)NC1=O [Cp01-Trp7Bta] (Ac-ICVWQD[Bta]GAHRCT-NH2; disulfide 2-12) | < 4.80
CC[C@H](C)[C@H](NC(C)=O)C(=O)N[C@H]1CSSC[C@@H](C(=O)N[C@H](C(N)=O)[C@@H](C)O)NC(=O)[C@H](CCCNC(=N)N)NC(=O)[C@H](Cc2c[nH]cn2)NC(=O)[C@H](C)NC(=O)CNC(=O)[C@H](Cc2c[nH]c3ccccc23)NC(=O)[C@H](CC(=O)O)NC(=O)[C@H](CCC(N)=O)NC(=O)[C@H](Cc2c[nH]c3ccccc23)NC(=O)[C@H](Cc2c[nH]c3ccccc23)NC1=O | < 5.70
CC[C@H](C)[C@H](NC(C)=O)C(=O)N[C@H]1CSSC[C@@H](C(=O)N[C@H](C(N)=O)[C@@H](C)O)NC(=O)[C@H](CCCNC(=N)N)NC(=O)[C@H](Cc2c[nH]cn2)NC(=O)[C@H](C)NC(=O)CNC(=O)[C@H](Cc2c[nH]c3ccccc23)NC(=O)[C@H](CC(=O)O)NC(=O)[C@H](CCCCN)NC(=O)[C@H](Cc2c[nH]c3ccccc23)NC(=O)[C@H](C(C)C)NC1=O [Cp01-Gln5Lys] (Ac-ICVWKDWGAHRCT-NH2; disulfide 2-12) | < 5.70

# input for lookup
Input line: I'd like to know its pKd. The compound in question is "CC[C@H](C)[C@H](NC(C)=O)C(=O)N[C@H]1CSSC[C@@H](C(=O)N[C@H](C(N)=O)[C@@H](C)O)NC(=O)[C@H](CCCNC(=N)N)NC(=O)[C@H](Cc2c[nH]cn2)NC(=O)[C@H](C)NC(=O)CNC(=O)[C@H](Cc2c[nH]c3ccccc23)NC(=O)[C@H](CC(=O)O)NC(=O)[C@H](CCC(N)=O)NC(=O)[C@H](Cc2c[nH]c3ccccc23)NC(=O)[C@H](C)NC1=O"
Output line: < 5.70
